tested on: H630 R10; experiment: MTT cytotoxicity assay, colorectal cancer cell line H630 R10 (resistant to 5FU 10 μM); format: cell-based; details: comparative agent as listed, no added metal named, 72 h
measurement.label: pIC50
FYI, pIC50 means -log10 of a concentration in mol per litre.

Query: Provide the reported pIC50 (system: H630 R10) for CCN(CC)C(=S)[S-].CCN(CC)C(=S)[S-].[Cu+2] [(DDC)2Cu, reference compound]
Response: 5.31

###

system: H630 WT; test: MTT cytotoxicity assay, colorectal cancer cell line H630 WT; format: cell-based; conditions: comparative agent as listed, no added metal named, 72 h
measurement.label: IC50 (µM)
Give the quantity in µM, number only.

Query: Provide the reported IC50 (system: H630 WT) for CCN(CC)C(=S)[S-].CCN(CC)C(=S)[S-].[Cu+2] [(DDC)2Cu, reference compound]
Response: 5.9

###

system: H630 R10; assay: MTT cytotoxicity assay, colorectal cancer cell line H630 R10 (resistant to 5FU 10 μM); format: cell-based; details: Homo sapiens, NCI-H630; comparative agent as listed, no added metal named, 72 h
measurement.label: pIC50
FYI, pIC50 means -log10 of a concentration in mol per litre.

Query: Name the recorded pIC50 of the item O=c1[nH]cc(F)c(=O)[nH]1 [Example 5FU, fluorouracil, reference compound] in your answer.
Response: 3.34

###

Test system: H630 WT
Test: MTT cytotoxicity assay, colorectal cancer cell line H630 WT
Format: cell-based
Conditions: Homo sapiens, NCI-H630; with Cu (10 μM CuCl2), 72 h
Procedure: The H630 WT (passage 12-21) and H630 R10 (passage 4-13) cells were seeded in 96-well plates at seeding density of 1×10^4 cells/well in Dulbecco's modified Eagle's medium (DMEM) with 10% FBS, 1 mM sodium pyruvate, 2 mM L-glutamine and 0.1 mM non-essential amino acids. Cells were incubated at 37° C., 5% CO2 and 95% relative humidity. […] The experiments were carried out in triplicates and the IC50 values were calculated (see FIG. 2).
measurement.label: IC50
Hi, when you answer, please include the unit after the number. Thanks!

> print(dat)
                                   molecule  measurement.label  result
1  CCN(CC)C(=S)SC1CC(O)C(O)C(CO)O1 (stereo not shown) [DG-DDC, 2-Deoxy-glycosyl diethyldithiocarbamate]               IC50  5.2 µM
2  CCN(CC)C(=S)SC1O[C@H](CO)[C@@H](O)[C@H](O)[C@H]1O (stereo partly shown) [G-DDC, Glycosyl diethyldithiocarbamate]               IC50  127 µM
3  CCN(CC)C(=S)SC1OC(CO)C(O)C(O)C1NC(C)=O (stereo not shown)               IC50  5.8 µM

Query: Name the recorded IC50 of the item CCN(CC)C(=S)SC1OC[C@@H](O)[C@H](O)[C@H]1O (stereo partly shown) [XY-DDC, Xylosyl diethyldithiocarbamate] in your answer.
Response: 6.9 µM
